Test: MIC of test compounds against various organisms
Type: cell-based
Conditions: against one or more of the above range of gram positive and gram negative bacteria
RECORDED METRIC: MIC

For the compound shown here, `COc1ccc2nccc([C@@H](O)CN3CCC(NCCCn4cc(F)c(=O)[nH]c4=O)CC3)c2c1` , give the reported MIC.
≤ 32 µg/mL

Which MIC is reported for this compound? COc1ccc2nccc([C@@H](O)CN3CCC(NCC(=O)Nc4ccccc4)C(CO)C3)c2c1 (mixture of isomers)
≤ 2 µg/mL

Give the measured MIC of `COc1ccc2nccc([C@@H](O)CN3CCC(NC/C=C/c4nccs4)CC3)c2n1` .
≤ 0.25 µg/mL
